# credit: patent US20190083585

- TARGET_SYSTEM: T1, fluorescently quenched α-gliadin hexapeptide analogue QXL520-PQPQLP-K(5-FAM)-NH2
- T1 chain: PQPQLP
Fold Change in Activity of PQ Hydrolysis Relative to Wild Type Kumamolysin-As values for the proteins below.
Give the value in fold but do not write fold after it.

// known answers, use as guide
protein="Kumamolisin-As (wild type) (protein) AAPTAYTPLDVAQAYQFPEGLDGQGQCIAIIELGGGYDEASLAQYFASLGVPAPQVVSVSVDGASNQPTGDPSGPDGEVELDIEVAGALAPGAKFAVYFAPNTDAGFLDAITTAIHDPTLKPSVVSISWGGPEDSWTSAAIAAMNRAFLDAAALGVTVLAAAGDSGSTDGEQDGLYHVDFPAASPYVLACGGTRLVASGGRIAQETVWNDGPDGGATGGGVSRIFPLPAWQEHANVPPSANPGASSGRGVPDLAGNADPATGYEVVIDGEATVIGGTSAVAPLFAALVARINQKLGKAVGYLNPTLYQLPADVFHDITEGNNDIANRAQIYQAGPGWDPCTGLGSPIGVRLLQALLPSASQPQPGSTENLYFQSGALEHHHHHH" result_number=1
protein="Kumamolisin-As N291D, G319S, D358G, D368H (protein) AAPTAYTPLDVAQAYQFPEGLDGQGQCIAIIELGGGYDEASLAQYFASLGVPAPQVVSVSVDGASNQPTGDPSGPDGEVELDIEVAGALAPGAKFAVYFAPDTDAGFLDAITTAIHDPTLKPSVVSISWSGPEDSWTSAAIAAMNRAFLDAAALGVTVLAAAGDSGSTGGEQDGLYHVHFPAASPYVLACGGTRLVASGGRIAQETVWNDGPDGGATGGGVSRIFPLPAWQEHANVPPSANPGASSGRGVPDLAGNADPATGYEVVIDGEATVIGGTSAVAPLFAALVARINQKLGKAVGYLNPTLYQLPADVFHDITEGNNDIANRAQIYQAGPGWDPCTGLGSPIGVRLLQALLPSASQPQPGSTENLYFQSGALEHHHHHH" result_number=93
protein="Kumamolisin-As G319S, S354N, D358G, D368H (protein) AAPTAYTPLDVAQAYQFPEGLDGQGQCIAIIELGGGYDEASLAQYFASLGVPAPQVVSVSVDGASNQPTGDPSGPDGEVELDIEVAGALAPGAKFAVYFAPNTDAGFLDAITTAIHDPTLKPSVVSISWSGPEDSWTSAAIAAMNRAFLDAAALGVTVLAAAGDNGSTGGEQDGLYHVHFPAASPYVLACGGTRLVASGGRIAQETVWNDGPDGGATGGGVSRIFPLPAWQEHANVPPSANPGASSGRGVPDLAGNADPATGYEVVIDGEATVIGGTSAVAPLFAALVARINQKLGKAVGYLNPTLYQLPADVFHDITEGNNDIANRAQIYQAGPGWDPCTGLGSPIGVRLLQALLPSASQPQPGSTENLYFQSGALEHHHHHH" result_number=5

Problem: Input KumaMax™ (Kumamolisin-As V119D, S262K, N291D, D293T, G319S, D358G, D368H) (protein) AAPTAYTPLDVAQAYQFPEGLDGQGQCIAIIELGGGYDEASLAQYFASLGVPAPQVVSVSVDGASNQPTGDPKGPDGEVELDIEVAGALAPGAKFAVYFAPDTTAGFLDAITTAIHDPTLKPSVVSISWSGPEDSWTSAAIAAMNRAFLDAAALGVTVLAAAGDSGSTGGEQDGLYHVHFPAASPYVLACGGTRLVASGGRIAQETVWNDGPDGGATGGGVSRIFPLPAWQEHANVPPSANPGASSGRGVPDLAGNADPATGYEVVIDGEATVIGGTSAVAPLFAALVARINQKLGKAVGYLNPTLYQLPADVFHDITEGNNDIANRAQIYQAGPGWDPCTGLGSPIGVRLLQALLPSASQPQPGSTENLYFQSGALEHHHHHH , output reported Fold Change in Activity of PQ Hydrolysis Relative to Wild Type Kumamolysin-As.
Result: 120
